So I've got a bunch of molecules here, and I need their growth values.
test system: NCI-H23 lung; test: NCI-60 one-dose screen, 48 h (100 = growth as untreated, 0 = no growth, -100 = all killed); details: 10 µM unless noted
Compounds without any hit were thinned out: in the full panel of roughly 83,000, 20% have a hit. Active and inactive are the calls of the source. The calls were made as follows: active = growth percent below 10; inactive = the rest.

> print(dat)
                                   molecule    measuredresult
1  N#Cc1ccc(S(=O)(=O)Nc2ccc(-c3cnc(N)[nH]3)cc2)cc1  99.1% (inactive)
2  COc1cc(/C=C2\SC(=O)NC2=O)ccc1OCC(=O)Nc1ccc(C(=O)/C=C/c2cc3ccccc3nc2Cl)cc1  68.6% (inactive)
3  Cn1cc(-c2nn3cc(-c4cccnc4)nc3s2)c2cc(F)ccc21  93.9% (inactive)
4  CS(=O)(=O)c1ccc2c(c1)c1c(n2Cc2ccc(Cl)cc2)CCCC1  73.5% (inactive)
5  COc1cc2c3c(n(CCCNC4CCCC4)c(=O)c2cc1OC)-c1cc2c(cc1C3=O)OCO2   -62.8% (active)
6  CC(c1ccccc1)N1C(=O)/C(=C/c2csc(C#N)n2)SC1=S (stereo not given)   101% (inactive)
7  C/C(=C(/C)C1CC1CCN(C(=O)c1ccc([N+](=O)[O-])cc1)S(=O)(=O)c1ccc(C)cc1)C1CCCCC1 (stereo not given)  87.2% (inactive)
8  COc1cc(C2=NN(C(C)=O)C(c3ccc(N4CCOCC4)cc3)C2)cc(OC)c1OC (stereo not given)  86.8% (inactive)
9  CN(C)c1ccc(/C=N/Nc2nc(N/N=C/c3ccc(N(C)C)cc3)nc(N3CCOCC3)n2)cc1  99.3% (inactive)

Now take the following molecule into account.
Data point: C/C(=N\NC(=S)Nc1ccc(Br)cc1)c1cc2ccccc2oc1=O ; growth = 34.1% (inactive)
